Readings of viability at 24 h, 50 µM for the listed molecules
- ASSAY_METHOD_TEXT: RAW264.7 cell viability experiment (MTT)
- TEST_PARAMETERS: mouse, RAW264.7 cells

| MOLECULE | viability at 24 h, 50 µM [%] |
| --- | --- |
| O=C1C[C@H](c2ccc(O)c(O)c2)Oc2cc(O)cc(O)c21 [Compound 2, (-)-eriodictyol] | 100 |
| CC1=C(CC[C@H](C)O[C@H]2O[C@@H](CO)[C@H](O)[C@@H](O)[C@@H]2O)C(C)(C)C=CC1=O [Compound 4, linarionoside A] | 98.8 |
| COC(=O)C1OC(OCC(O)COC(=O)c2cc(OC)c(O)c(OC)c2)C(O)C(O)C1O (stereo not shown) [Compound 1, Roxbubenzoate A] | 100 |
| O=C1c2c(O)cc(O)cc2O[C@H](c2ccc(O)cc2)[C@H]1O | 100 |

###

- ASSAY_METHOD_TEXT: RAW264.7 cell viability experiment (MTT)
- TEST_PARAMETERS: mouse, RAW264.7 cells
READOUT_TYPE: viability at 24 h, 5 µM (%)

| COMPOUND | RESULT |
| --- | --- |
| S=C(S)N1CCCC1 [PDTC, Pyrrolidine dithiocarbamate, reference compound] | 98.5 |

###

Readings of pIC50 for the listed molecules
- Tested on: NO release in LPS-induced RAW264.7 macrophages
- ASSAY_METHOD_TEXT: Inhibition of NO production induced by LPS in RAW264.7 cells
- Assay type: cell-based
- TEST_PARAMETERS: Mus musculus, RAW264.7, 24 h, LPS-induced RAW264.7 cells, LPS 2 μg/mL, 24 h
pIC50: −log10 of the molar value.

| MOLECULE | pIC50 |
| --- | --- |
| O=C1c2c(O)cc(O)cc2O[C@H](c2ccc(O)cc2)[C@H]1O [Compound 3, aromadendrin] | 5.11 |
| S=C(S)N1CCCC1 [PDTC, Pyrrolidine dithiocarbamate, reference compound] | 5.50 |

Values were extracted from paper PMC11818921.
